Target: T1, human GITR (amino acids M1-V241, NCBI Accession #NP_004186.1) expressed on cells (human, UniProt Q9Y5U5 26-241)
T1 sequence: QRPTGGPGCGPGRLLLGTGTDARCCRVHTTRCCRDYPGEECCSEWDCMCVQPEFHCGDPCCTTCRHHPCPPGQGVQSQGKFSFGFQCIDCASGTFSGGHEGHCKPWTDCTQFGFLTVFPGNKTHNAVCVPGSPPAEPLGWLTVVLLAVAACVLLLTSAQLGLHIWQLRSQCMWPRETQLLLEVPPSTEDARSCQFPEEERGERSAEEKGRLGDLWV
Experiment: cell-based or functional assay
Returns one of yes (1) or no (0); yes (1) when fold activation, T-cell proliferation, plate-bound Ab 10.6 nM, mean is >= 5 fold.

>  <BINDER>
H4H14475P (antibody, human IgG4, V domains shown, human IgG4 (H4H)) VH: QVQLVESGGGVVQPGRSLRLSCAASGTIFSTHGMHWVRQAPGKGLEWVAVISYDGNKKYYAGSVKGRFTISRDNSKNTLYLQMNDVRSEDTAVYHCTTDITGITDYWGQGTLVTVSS VL: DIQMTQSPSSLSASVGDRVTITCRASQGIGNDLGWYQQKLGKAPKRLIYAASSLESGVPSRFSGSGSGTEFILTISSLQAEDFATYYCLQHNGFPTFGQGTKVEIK

>  <CLASS_ASSIGNMENT>
no (0)

$$$$

Task: Please tell me: is the binder H4H14521P (antibody, human IgG4, V domains shown, human IgG4 (H4H)) VH: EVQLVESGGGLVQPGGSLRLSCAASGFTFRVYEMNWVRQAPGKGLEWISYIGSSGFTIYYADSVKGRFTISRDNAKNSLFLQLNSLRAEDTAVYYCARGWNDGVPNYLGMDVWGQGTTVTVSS VL: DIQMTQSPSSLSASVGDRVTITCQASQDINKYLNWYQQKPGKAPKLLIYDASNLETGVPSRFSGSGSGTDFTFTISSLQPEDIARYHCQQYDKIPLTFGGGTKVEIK at or over 5 fold in terms of fold activation, T-cell proliferation, plate-bound Ab 10.6 nM, mean?
Output: no (0)

Task: Please check the record H4H14525P (antibody, human IgG4, V domains shown, human IgG4 (H4H)) VH: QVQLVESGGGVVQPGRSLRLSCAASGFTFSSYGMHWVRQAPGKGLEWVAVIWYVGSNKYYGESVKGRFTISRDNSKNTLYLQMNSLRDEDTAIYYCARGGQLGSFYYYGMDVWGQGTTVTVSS VL: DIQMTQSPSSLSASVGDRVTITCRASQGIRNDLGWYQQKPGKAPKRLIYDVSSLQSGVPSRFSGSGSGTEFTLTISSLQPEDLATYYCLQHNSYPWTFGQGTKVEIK and state if its fold activation, T-cell proliferation, plate-bound Ab 10.6 nM, mean is at or above 5 fold.
Output: no (0)

Task: Check this binder for fold activation, T-cell proliferation, plate-bound Ab 10.6 nM, mean at or above 5 fold: H4H14528P (antibody, human IgG4, V domains shown, human IgG4 (H4H)) VH: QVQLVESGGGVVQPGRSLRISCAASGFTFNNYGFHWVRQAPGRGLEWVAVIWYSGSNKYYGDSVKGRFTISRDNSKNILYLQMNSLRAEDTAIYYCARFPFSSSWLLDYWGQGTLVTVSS VL: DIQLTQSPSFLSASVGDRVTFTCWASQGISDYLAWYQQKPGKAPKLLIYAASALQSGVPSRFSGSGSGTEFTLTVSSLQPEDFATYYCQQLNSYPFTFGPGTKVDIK
Output: yes (1)

Task: Decide: fold activation, T-cell proliferation, plate-bound Ab 10.6 nM, mean of H4H14470P (antibody, human IgG4, V domains shown, human IgG4 (H4H)) VH: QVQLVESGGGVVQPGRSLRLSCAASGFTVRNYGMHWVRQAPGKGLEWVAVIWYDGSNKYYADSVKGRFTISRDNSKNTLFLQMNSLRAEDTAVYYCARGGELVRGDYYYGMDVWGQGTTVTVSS VL: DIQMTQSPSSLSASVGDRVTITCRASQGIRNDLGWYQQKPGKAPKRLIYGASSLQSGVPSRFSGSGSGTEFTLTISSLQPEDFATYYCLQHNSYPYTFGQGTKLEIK >= 5 fold?
Output: no (0)

Task: Form field: fold activation, T-cell proliferation, plate-bound Ab 10.6 nM, mean at least 5 fold? Entry: H4H14469P (antibody, human IgG4, V domains shown, human IgG4 (H4H)) VH: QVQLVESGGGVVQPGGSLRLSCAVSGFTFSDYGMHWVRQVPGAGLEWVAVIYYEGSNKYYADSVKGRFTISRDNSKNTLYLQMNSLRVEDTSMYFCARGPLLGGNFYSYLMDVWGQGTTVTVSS VL: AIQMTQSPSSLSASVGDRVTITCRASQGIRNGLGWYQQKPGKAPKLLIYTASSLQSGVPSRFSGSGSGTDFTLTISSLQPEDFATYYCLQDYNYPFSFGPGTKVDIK
Output: yes (1)
